// values below are reported noFAD/FAD
- system.name: Diaphorase
- test.summary: peptide array, 10 uM diaphorase, binding without FAD / with FAD

binder	noFAD/FAD
FQFGKVVSDGSG	0.631
RAQYAQYLFGGSG	1.18
RWYKNGGSG	1.4
WRGFKFADGGSG	1.87
YRFPNAQSPGGSG	1.74
FGKLYQLYNDGSG	0.46
KNRPYNKDLEDGSG	0.974
RWRYYWKSEGSG	1.27
EDEGLSKFEGGSG	0.885
RNWYGGS [RNWYGGSG]	1.35
RPLQVQRGGS	1.3
YRFAQYKGQKDGSG	2.86
PRSFGYNNVGGSG	1.62
RWKYQKFNGGSG	1.33
EGYANKLLALFSGSG	0.639
RLQYLFKSDGSG	2.1
